Assay: NCI Yeast Anticancer Drug Screen. Data for the sgs1 mgt1 strain (AID 161)
Details: S. cerevisiae sgs1 mgt1 strain, at 50.0 µM (retest, dose inferred, filed as 5.0)
The panel holds about 79,000 compounds, 15% with a hit somewhere; the sample as a whole holds those more often. Calls of active or inactive are those of the source. Cut-off read from the data, not from the text of the source: active = growth inhibition above about 70%; inactive = the rest.
Outcome field: choose from TRUE for active, FALSE for inactive

Request: Could you please tell me the result logged for `c1ccc2c(NCCCCCCCCNc3c4ccccc4nc4ccccc34)c3ccccc3nc2c1` in this assay?
Response: TRUE

Request: Just curious, what result did [Cl][Hg].c1ccc([As]c2ccc(-c3ccccc3)cc2)cc1 (configuration not stated) get here?
Response: TRUE

Request: Lab log entry: `c1ccc2cc3n[se]nc3cc2c1` — outcome as called in the assay?
Response: FALSE

Request: Query: recorded result category for `CCC[CH2][Sn]1([CH2]CCC)[O]C(=O)c2cccc(C)c2[O]1` in this test
Response: TRUE

Request: Recorded test outcome, item `Oc1cccnc1[Se]`
Response: FALSE

Request: What was the test verdict on `CCC[CH2][Sn]([F])([CH2]CCC)[O][Sn]([F])([CH2]CCC)[CH2]CCC` ?
Response: TRUE

Request: I would be grateful if you could indicate the recorded call for OC(c1cc2c(c3ccccc13)CCCC2)C1CCCCN1 (configuration not stated) .
Response: FALSE

Request: // outcome(item) with item = `COc1ccc(CNCCc2ccc(O)c(OC)c2)cc1O`
Response: FALSE

Request: Per the records of this test, what outcome belongs to COc1cc(C2c3cc4c(cc3[C@@H](Nc3ccc(F)cc3)C3COC(=O)[C@H]23)OCO4)cc(OC)c1O (some centres not stated) ?
Response: TRUE

Request: Hi, do you know how `O=[N+]([O-])c1csc([N+](=O)[O-])c1` came out in this test?
Response: TRUE

Request: Record request — test call for Cc1ccc2c(c1)C1(C)c3cc(C)ccc3SP1S2 (configuration not stated)
Response: FALSE

Request: Please share the test call associated with `CC(=O)Nc1cccc([As+](C)(c2cccc(NC(C)=O)c2)c2cccc(NC(C)=O)c2)c1` .
Response: FALSE

Request: Per the records of this test, what outcome belongs to `CC[CH2][Sn]([F])([F])[CH2]CC` ?
Response: TRUE

Request: Tell me the recorded outcome of this test for CCn1c(O)c(C(=O)NC(C)c2ccc([N+](=O)[O-])cc2)c(=O)n(CC)c1=S (configuration not stated) .
Response: TRUE

Request: Identify the outcome logged in this assay for the compound shown: CC1(C)OC2OC3C(CN(CCCl)Cc4ccccc4)OC(c4ccccc4)OC3C2O1 (configuration not stated)
Response: FALSE

Request: Recorded test call requested for NN1CCCC1C(=O)O (configuration not stated)
Response: FALSE

Request: Record lookup: outcome of this test for `FC1(F)C(Cl)=[C]([Hg][C]2=C(Cl)C(F)(F)C(F)(F)C(F)(F)C2(F)F)C(F)(F)C(F)(F)C1(F)F` ?
Response: TRUE

Request: What did this assay record as the result for `CCOP(=S)(S)OCC.[Pd]` ?
Response: FALSE

Request: Status in this test for `C[CH2][Sn]([CH2]C)([CH2]C)[O]C(=O)CO` ?
Response: TRUE

Request: Status in this test for `O=C(/C=C(\c1ccccc1)N1CC1)c1ccccc1` ?
Response: FALSE

Request: Test call for this compound, please: `CC1(C)CCC(C)(C)c2cc(Cl)c(O)cc21`
Response: FALSE

Request: Could you please tell me the result logged for `O=C(N/N=C/c1cc(Cl)cc(Cl)c1[O-])c1ccccc1O.O=C(N/N=C/c1cc(Cl)cc(Cl)c1[O-])c1ccccc1O.[Mn+2]` in this assay?
Response: TRUE

Request: State the result this test recorded for `COc1c(Br)cc(/C=C(/C)[N+](=O)[O-])cc1Br` .
Response: TRUE

Request: // return assay outcome for CC(=O)OC1C(=O)OCC23CCC4(C)OC4C2OC2CC(OC(=O)/C=C/C=C/C(=O)OCCC1C)C3(C)C21CO1 (configuration not stated)
Response: TRUE

Request: Hi, do you know how `CSC(=Nc1ccccc1)N(c1ccccc1)c1nc(=[N+](C)C)ss1` came out in this test?
Response: TRUE

Request: For this compound, state the assay outcome: `CC#N.FC(F)(F)C#CC(F)(F)F.FC(F)(F)C#CC(F)(F)F.FC(F)(F)C#CC(F)(F)F.[W]`
Response: TRUE

Request: Just curious, what result did `CCS(=O)(=O)[O][Sn]([CH2]C)([CH2]C)[O]S(=O)(=O)CC` get here?
Response: FALSE

Request: For this compound, state the assay outcome: `CC1=[N+](Cc2cc(C)cc(C)c2O)CCCC1`
Response: FALSE

Request: Look up the recorded call for `Oc1c(Cl)cc(Cl)cc1Cl` in this test.
Response: FALSE

Request: Called result for `CC(=O)[CH-]C(C)=O.CC(=O)[CH-]C(C)=O.[CH2-]CCC.[CH2-]CCC.[Sn+4]`
Response: TRUE

Request: // return assay outcome for CSc1ccc(NC(=O)C2c3[nH]c4ccccc4c3C3CCC(C(C)(C)C)CC3C2C(=O)O)cc1 (configuration not stated)
Response: FALSE

Request: What outcome does the record of this test show for `[Cl][Hg][Cl]` ?
Response: TRUE

Request: # fetch the recorded call for COc1cc2c3c(c1)-c1c(ccc(OC)c1OC)CC3N(CCCl)CC2 (configuration not stated) here
Response: TRUE

Request: Per the records of this test, what outcome belongs to C[CH2][Sn]([CH2]C)([S]CCS(=O)(=O)O)[S]CCS(=O)(=O)O (tested in a mixture with another compound) ?
Response: FALSE

Request: Hey, what did the test say about CCOC(=O)C1C2OC(=O)C(C(=O)C2CN(CCCl)CCCl)C1C1CC=C(CC2=CCC(C3C4C(=O)OC(C(CN(CCCl)CCCl)C4=O)C3C(=O)OCC)CC2)CC1 (configuration not stated) ?
Response: TRUE

Request: Please share the test call associated with CCC(C)c1cc([N+](=O)[O-])cc([N+](=O)[O-])c1O (configuration not stated) .
Response: FALSE

Request: I'd appreciate the recorded outcome for `[Cl][Sn]1([c]2ccccc2)[O]CCNCC[O]1` from this test.
Response: TRUE

Request: Could you check what this test reported for `CCC1(C2=CCCCC2)C(=O)NC(=S)NC1=O` ?
Response: TRUE

Request: Query: recorded result category for CC[C@]1(O)CC(OC2CC(N(C)C)C(O)C(C)O2)c2c(cc3c(c2O)C(=O)c2c(O)cccc2C3=O)[C@@H]1C(=O)OC (some centres not stated) in this test
Response: TRUE

Request: What is the recorded call for this compound in the test? CC[C@@]1(O)CC(OC2CC(N3CCOCC3)C(O)C(C)O2)c2c(O)c3c(c(O)c2[C@H]1O)C(=O)c1cccc(O)c1C3=O (some centres not stated)
Response: TRUE

Request: Recorded test call requested for CC(Cc1ccccc1)N(C)Cc1ccc(-c2ccc(Cl)cc2)o1 (configuration not stated)
Response: TRUE

Request: Hi, sorry to bother you, what did the test record for O=C(OCc1ccccc1)C(C(Cl)c1ccccc1)N(Cc1ccccc1)Cc1ccccc1 (configuration not stated) ?
Response: FALSE
